ASSAY TARGET: MyD88^TIR (Homo sapiens)
Construct: MyD88 (residues 148–296); 6xHis; made in house; host or cells: E. coli BL21 (DE3)
Sequence (Q99836 148-296): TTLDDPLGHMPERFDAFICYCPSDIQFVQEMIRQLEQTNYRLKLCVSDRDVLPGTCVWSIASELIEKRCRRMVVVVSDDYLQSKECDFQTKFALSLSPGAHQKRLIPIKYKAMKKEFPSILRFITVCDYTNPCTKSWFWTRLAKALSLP
ASSAY REMARKS: T‐Surf phage library (P8 and P3) selection against MyD88^TIR, four rounds, NGS read counts
Format: binding
CONDITION NOTES: P8_MyD88: rank by count after grouping
MEASURE: Rank (after)

biosequence=SFTDHLYAALVQAGIL measure="Rank (after)" numeric_value=126

A: PQVLGWFYERLVSLIL
B: LFWDRLIYAVSDVASA
C: NSSWALEELVKIMEAM
Parameters: sort_field (Rank (after)), sort_dir (desc). Thanks in advance for listing the labels in the requested order.
A, C, B
(A: 447, C: 186, B: 111)

A: DPQDLEWFYERLFSR
B: NLSGWHILDGFLFDEF
# min-compare on Rank (after) between A and B I would appreciate it if you answered with the label of your choice.
B
